Test system: NOMO1
Experiment: cell viability relative to DMSO control; higher = less cytotoxic
Conditions: HPLM + 10% dialyzed FBS; 48 h; 0.569 µM
Assignment: determine reported cell viability for the given molecules.
One number for each entry, in %.

Below: 8 molecules and their reported cell viability.
What cell viability appears in the records for this molecule with NOMO1? COc1ccc(C(=O)c2c(C)n(CCN3CCOCC3)c3ccccc23)cc1
107

What cell viability appears in the records for this molecule with NOMO1? N#C/C(=C\c1ccc(O)c(O)c1)C(=O)NCc1ccccc1
122

What cell viability appears in the records for this molecule with NOMO1? NC(=O)[C@H]1CCS[C@@H]2C[C@]3(CCCN3C(=O)Cc3ccc(NC(=O)COc4ccc(Cl)cc4Cl)cc3)C(=O)N12
102

What cell viability appears in the records for this molecule with NOMO1? Cc1nn(C)c(COc2ccc(N3CCN([S+](=O)([O-])N(C)C)CC3)cc2)c1-c1cccc2c(CCCOc3cccc4ccccc34)c(C(=O)O)n(CCN3CCOCC3)c12
137

What cell viability appears in the records for this molecule with NOMO1? C=C1C(=O)OC(CCCCCCCC)C1C(=O)O (configuration not stated)
130

What cell viability appears in the records for this molecule with NOMO1? Cc1nc2cc(C(=O)N3CCC4(CC3)CC(=O)c3c(cnn3C(C)C)C4)ccc2[nH]1
134

What cell viability appears in the records for this molecule with NOMO1? O=C(CS(=O)Cc1ccco1)NC/C=C\COc1cc(CN2CCCCC2)ccn1 (configuration not stated)
93.8

What cell viability appears in the records for this molecule with NOMO1? Cc1ccccc1C(OCCN(C)C)c1ccccc1 (configuration not stated)
142

// for each molecule below, give its cell viability
1. CC[S+](=O)([O-])Nc1ccc2c(c1)/C(=C(/Nc1ccc(CN3CCCCC3)cc1)c1ccccc1)C(=O)N2
2. O=C1CCC[C@@H]2[C@H]3CCCN4CCC[C@@H](CN12)[C@@H]34
3. CCc1cc2c(cc1N1CCC(N3CCOCC3)CC1)C(C)(C)c1[nH]c3cc(C#N)ccc3c1C2=O
4. C[C@@H]1O[C@@H](O[C@H]2C[C@@H](O)[C@]3(CO)[C@H]4[C@H](O)C[C@]5(C)[C@@H](C6=CC(=O)OC6)CC[C@]5(O)[C@@H]4CC[C@]3(O)C2)[C@H](O)[C@H](O)[C@H]1O
5. C[C@@H]1CN(Cc2ccc(F)cc2)[C@@H](C)CN1C(=O)c1cc2c(C(=O)C(=O)N(C)C)cn(C)c2cc1Cl
6. O=C1\C=C/C=C2/[C@H]3CNC[C@H](C3)CN12

1: 79.3; 2: 38.3; 3: 134; 4: 9.66; 5: 139; 6: 130
